molecular target: Platelet-activating factor acetylhydrolase IB subunit alpha2 (Homo sapiens); test: PAFAH1B2 enzyme inhibitors, primary screen, biochemical, fluorescence polarization, human (AID 492953); conditions: recombinant PAFAH1B2, FP-rhodamine activity probe, at 3.39 µM;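 note: 0% = enzyme with DMSO and 100% = wells lacking PAFAH1B2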
Among all 340,000 compounds or so, about 4,200 (1.2%) were called active.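 Rule for the calls: active = inhibition above the mean of all tested compounds plus 3 SD (cut at about 24% in these data); inactive = the rest.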 What follows is part of a selection rich in actives, with near analogues and random picks from the rest.
Choose the fitting class; nothing outside active, inactive is accepted.

These solved cases illustrate the format of a correct answer.
| MOLECULE | SUBJECT_OF_TEST | CATEGORY |
| --- | --- | --- |
| CCCS(=O)(=O)Nc1c(C(=O)O)[nH]c2ccccc12 | Platelet-activating factor acetylhydrolase IB subunit alpha2 (Homo sapiens) | inactive |
| O=C(Nc1ccccc1)O/N=C1/CCCc2occc21 | Platelet-activating factor acetylhydrolase IB subunit alpha2 (Homo sapiens) | inactive |
| CC(=O)COc1ccc2c(-c3ccccc3)cc(=O)oc2c1 | Platelet-activating factor acetylhydrolase IB subunit alpha2 (Homo sapiens) | inactive |
| Clc1ccc2c(c1)C1=C(C(c3ccncc3)O2)C(c2ccc(Br)cc2)n2ncnc2N1 (centres undefined) | Platelet-activating factor acetylhydrolase IB subunit alpha2 (Homo sapiens) | inactive |
| O=C(COc1cccc(-n2cnnn2)c1)NCCC1=CCCCC1 | Platelet-activating factor acetylhydrolase IB subunit alpha2 (Homo sapiens) | inactive |

[in] Returns: the outcome recorded for `O=[N+]([O-])c1ccc(NCCCO)c(C(F)(F)F)c1` in this assay.
[out] inactive

[in] Returns: the outcome recorded for `O=C(C1CCN(CC2CCCCC2)CC1)N1CCCC1` in this assay.
[out] inactive

[in] Returns: the outcome recorded for CC(NC(=O)CC1SC(N)=NC1=O)c1ccccc1 (centres undefined) in this assay.
[out] inactive

[in] Returns: the outcome recorded for `CC(C)COc1ccc(C(=O)OCC(=O)NCCC2=CCCCC2)cc1` in this assay.
[out] inactive

[in] Returns: the outcome recorded for `CCCCNC(=O)N1CCN(S(C)(=O)=O)CC1` in this assay.
[out] inactive

[in] Returns: the outcome recorded for `O=C(CNC(=O)c1ccc(-c2ccccc2)cc1)OCc1ccc(Cl)cc1` in this assay.
[out] inactive

[in] Returns: the outcome recorded for `O=C(CNC(=O)OCc1ccccc1)Oc1cc2oc(=O)cc(-c3ccccc3)c2cc1Cl` in this assay.
[out] active

[in] Returns: the outcome recorded for `COc1ccc(C(=O)NNC(=O)c2cc(C)[nH]n2)cc1` in this assay.
[out] inactive

[in] Returns: the outcome recorded for `CCN(Cc1ccccc1)S(=O)(=O)c1cc2c3c(c1)CCN3C(=O)CC2` in this assay.
[out] inactive

###

# key: entry, value: inhibition
biological target: Platelet-activating factor acetylhydrolase IB subunit alpha2 (Homo sapiens) (UniProt P68402); assay: PAFAH1B2 enzyme inhibitors, primary screen, biochemical, fluorescence polarization, human (AID 492953); conditions: recombinant PAFAH1B2, FP-rhodamine activity probe, at 3.39 µM, stronger effect = higher value;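 note: 0% = enzyme with DMSO and 100% = wells lacking PAFAH1B2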
Sequence (P68402 whole entry, looked up): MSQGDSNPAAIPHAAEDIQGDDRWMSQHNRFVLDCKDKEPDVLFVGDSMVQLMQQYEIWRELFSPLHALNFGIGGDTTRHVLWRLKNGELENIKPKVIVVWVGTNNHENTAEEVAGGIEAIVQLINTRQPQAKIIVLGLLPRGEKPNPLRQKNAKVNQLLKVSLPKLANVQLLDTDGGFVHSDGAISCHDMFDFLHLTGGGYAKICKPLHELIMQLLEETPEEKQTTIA
Among all 340,000 compounds or so, about 4,200 (1.2%) were called active. The list comes from a sample in which actives are over-represented; it also holds close analogues and randomly drawn compounds.
Form entry: value (%) — number only.

Below are worked cases with known answers.
| COMPOUND | READOUT_TYPE | MEASURED_RESULT |
| --- | --- | --- |
| Cc1ccc(C(=O)N/C(=C/c2ccc(-c3cccc([N+](=O)[O-])c3)o2)C(=O)NCCCN(C)C)cc1 | inhibition | 1.95 |
| COc1ccc(/C(C)=N/N2CCOCC2)c(O)c1 | inhibition | 3.71 |

[in] Form field: reported inhibition of `O=c1ccc2c(-c3ccccc3S(=O)(=O)O)c3ccc(O)c(O)c3oc-2c1O`
[out] 26.6

[in] Form field: reported inhibition of CC12CCC(=O)N1C(C(=O)NCCN1C(=O)S/C(=C\c3ccccc3F)C1=O)CS2 (stereo not drawn)
[out] -0.86

[in] Form field: reported inhibition of `COc1ccc(NS(=O)(=O)c2ccc(O)c(C(=O)OCC(=O)NC3CCCCC3)c2)cc1`
[out] 19.8

[in] Form field: reported inhibition of CC1C(C)N(C(=O)CCl)c2ccccc2N1C(=O)CCl (stereo not drawn)
[out] 2.69

[in] Form field: reported inhibition of `O=C(/C=C/c1ccccc1[N+](=O)[O-])OCC(=O)N1CCCC1`
[out] 0.91

[in] Form field: reported inhibition of `Cc1cc2oc(=O)cc(CN(C)Cc3ccc(OC(F)F)cc3)c2cc1Cl`
[out] -0.62

[in] Form field: reported inhibition of `Cc1cnc(NC(=O)CSc2nnc(-c3ccccc3)n2Cc2ccccc2)s1`
[out] 7.97
